Quick reference for OD450 among some binders
molecular target: T1, human MSLN-R3 protein (human, UniProt Q13421 487-598); assay: ELISA on coated antigen, antibody 0.001 nM
T1 construct: also called hMSLN-R3
T1 sequence (Q13421 495-606, form in doubt): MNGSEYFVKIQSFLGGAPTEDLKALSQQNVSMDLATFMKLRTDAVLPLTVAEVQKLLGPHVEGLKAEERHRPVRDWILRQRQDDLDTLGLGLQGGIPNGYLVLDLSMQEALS
Respond numerically; units are OD450 and should not be typed.

See these solved cases before continuing.
// query Look up OD450: F7.33.24-H8 (scFv, not shown: small tags and cut ends, also called S009-F7.33.24 humanized antibody VH2 + VL2) scFv: EVQLVQSGAEVKKPGASVKVSCKASGYTFTSYWMHWVRQAPGQGLEWMGNVNPSNGGSNYNEKFKNRVTITVDKSASTAYMELSSLRSEDTAVYYCAPHYIGSRPGFAYWGQGTLVTVSSGGGGSGGGGSGGGGSDIVMTQTPLSLSVTPGQPASISCKASQNVGTNIAWYLQKPGQSPQALIYSASYRYSGVPDRFSGSGSGTDFTLKISRVEAEDVGVYYCQQYNSYPLTFGGGTKVEIK
// result 0.04

// query What would you report for F7.33.24-H10 (scFv, not shown: small tags and cut ends, also called S009-F7.33.24 humanized antibody VH2a + VL1) scFv: EVQLVQSGAEVKKPGASVKVSCKASGYTFTSYWMHWVRQAPGQGLEWMGNVNPSNAGSNYNEKFKNRVTITVDKSASTAYMELSSLRSEDTAVYYCAPHYIGSRPGFAYWGQGTLVTVSSGGGGSGGGGSGGGGSDIVMTQSPDSLAVSLGERATINCKASQNVGTNIAWYQQKPGQSPKALIYSASYRYSGVPDRFSGSGSGTDFTLTISSLQAEDVAVYYCQQYNSYPLTFGGGTKVEIK ?
// result 0.05

// query What would you report for Tab111 (scFv, not shown: small tags and cut ends, also called YP218 VL-(G4S)3-VH-his antibody; positive control) scFv: DVVMTQTPASVSEPVGGTVTIKCQASQRISSYLSWYQQKPGQRPKLLIFGASTLASGVPSRFKGSGSGTEYTLTISDLECADAATYYCQSYAYFDSNNWHAFGGGTEVVVGGGGSGGGGSGGGGSQQQLEESGGGLVKPEGSLTLTCKASGFDLGFYFYACWVRQAPGKGLEWIACIYTAGSGSTYYASWAKGRFTISKASSTTVTLQMTSLAAADTATYFCARSTANTRSTYYLNLWGPGTLVTVSS ?
// result 0.05

Please look at the following binder next.
// query Look up OD450: F7.33.24-H2 (scFv, not shown: small tags and cut ends, also called S009-F7.33.24 humanized antibody VH1 + VL2) scFv: EVQLVQSGAEVKKPGASVKVSCKASGYTFTSYWMHWVRQAPGQRLEWMGNVNPSNGGSNYNEKFKNRVTITVDKSASTAYMELSSLRSEDTAVYYCAPHYIGSRPGFAYWGQGTLVTVSSGGGGSGGGGSGGGGSDIVMTQTPLSLSVTPGQPASISCKASQNVGTNIAWYLQKPGQSPQALIYSASYRYSGVPDRFSGSGSGTDFTLKISRVEAEDVGVYYCQQYNSYPLTFGGGTKVEIK
// result 0.04
